Consider the following compounds; for each one, report its viscosity.
# TEST_SUMMARY: mn = molality of the nth substance listed, in mol/kg
# ASSAY_CONTEXT: 293.15 K; 101 kPa; Liquid; Capillary tube (Ostwald / Ubbelohde) method; m2 = 0
Numeric answer only, unit mPa·s assumed.

Challenge: Give reported viscosity value for CCO [ethanol] + Cc1ccc(N)cc1N
Response given: 1.179

Challenge: Give reported viscosity value for CCCO [propan-1-ol] + Cc1ccc(N)cc1N
Response given: 2.171

Challenge: Give reported viscosity value for CCCCO [butan-1-ol] + Cc1ccc(N)cc1N
Response given: 2.908

Challenge: Give reported viscosity value for CCCO [propan-1-ol] + Cc1c(N)cccc1N
Response given: 2.171

Challenge: Give reported viscosity value for CCO [ethanol] + Cc1c(N)cccc1N
Response given: 1.179

Challenge: Give reported viscosity value for CCCCO [butan-1-ol] + Cc1c(N)cccc1N
Response given: 2.908

Challenge: Give reported viscosity value for O [water] + Cc1c(N)cccc1N
Response given: 1.002

###

# ASSAY_CONTEXT: 333.15 K; 101 kPa; Liquid; Capillary tube (Ostwald / Ubbelohde) method
OUTCOME_MEASURE: viscosity (mPa·s)
Numeric answer only, unit mPa·s assumed.

Challenge: Give reported viscosity value for O [water]
Response given: 0.467

Challenge: Give reported viscosity value for CCCCO [butan-1-ol]
Response given: 1.071

Challenge: Give reported viscosity value for CCO [ethanol]
Response given: 0.564

Challenge: Give reported viscosity value for CCCO [propan-1-ol]
Response given: 0.859
